Target: UniProt P08908
Sequence (P08908 whole entry): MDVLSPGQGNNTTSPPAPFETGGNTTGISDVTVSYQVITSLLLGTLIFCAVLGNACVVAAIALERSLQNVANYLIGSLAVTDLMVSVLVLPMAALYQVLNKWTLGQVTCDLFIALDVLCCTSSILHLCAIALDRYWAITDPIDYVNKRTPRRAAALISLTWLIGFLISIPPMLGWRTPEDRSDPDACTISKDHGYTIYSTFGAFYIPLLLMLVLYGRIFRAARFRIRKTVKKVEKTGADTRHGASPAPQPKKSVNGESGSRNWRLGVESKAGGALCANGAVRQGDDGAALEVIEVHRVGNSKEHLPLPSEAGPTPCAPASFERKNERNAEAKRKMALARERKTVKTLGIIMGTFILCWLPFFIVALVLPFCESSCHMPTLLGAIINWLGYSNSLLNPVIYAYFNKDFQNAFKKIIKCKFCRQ
Type: functional, cell-based
Endpoint: AC50

Reference set, count: 3
Compound	Endpoint	Result
N=C(N)NCCCCCCC(=O)NC(O)C(=O)NCCCCNCCCN (stereo not drawn)	AC50	> 30 µM
COC(=O)[C@H](c1ccccc1Cl)N1CCc2sccc2C1	AC50	> 30 µM
CCn1cc(C(=O)O)c(=O)c2cc(F)c(N3CCNCC3)nc21	AC50	> 10 µM

[Q] // AC50 lookup, key: NC(=O)c1ncn([C@@H]2O[C@H](CO)[C@@H](O)[C@H]2O)n1
[A] > 10 µM

[Q] // AC50 lookup, key: CNC(=O)Oc1ccc2c(c1)[C@]1(C)CCN(C)[C@@H]1N2C
[A] > 30 µM

[Q] // AC50 lookup, key: C=CC(N)CCC(=O)O (stereo not drawn)
[A] > 10 µM

[Q] // AC50 lookup, key: COc1ccnc(C[S+]([O-])c2nc3ccc(OC(F)F)cc3[nH]2)c1OC (stereo not drawn)
[A] > 10 µM

[Q] // AC50 lookup, key: CCOC(=O)NNc1ccc(N(CC)CC(C)O)nn1 (stereo not drawn)
[A] > 30 µM

====

Here the recorded AC50 is given for each entry.
Biological target: Thromboxane A2 receptor (Homo sapiens, UniProt P21731); note: assay procedure not described here
Sequence (P21731 whole entry): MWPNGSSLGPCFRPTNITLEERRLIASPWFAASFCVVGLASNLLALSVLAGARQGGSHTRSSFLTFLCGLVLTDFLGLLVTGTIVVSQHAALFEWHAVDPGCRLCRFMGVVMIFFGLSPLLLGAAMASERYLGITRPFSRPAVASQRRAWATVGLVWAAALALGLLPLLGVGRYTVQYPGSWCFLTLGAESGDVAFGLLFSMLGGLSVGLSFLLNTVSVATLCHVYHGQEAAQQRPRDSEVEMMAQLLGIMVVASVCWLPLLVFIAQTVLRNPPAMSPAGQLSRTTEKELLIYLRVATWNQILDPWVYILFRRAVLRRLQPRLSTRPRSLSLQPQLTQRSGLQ

Compound	Endpoint	Result
COC(=O)N[C@@H](C)CNc1nccc(-c2cn(C(C)C)nc2-c2cc(Cl)cc(NS(C)(=O)=O)c2F)n1	AC50	> 30 µM
CC(=O)/N=c1/sc(S(N)(=O)=O)nn1C [METHAZOLAMIDE]	AC50	> 10 µM
N[C@H](Cc1cc(I)c(Oc2cc(I)c(O)c(I)c2)c(I)c1)C(=O)O	AC50	21.9 µM

[Q] // AC50 lookup, key: C=C[C@@]1(C)CC(=O)[C@]2(O)[C@@]3(C)[C@@H](O)CCC(C)(C)[C@@H]3[C@H](OC(=O)CCN(C)C)[C@H](OC(C)=O)[C@@]2(C)O1
[A] > 30 µM

[Q] // AC50 lookup, key: CC(=O)c1ccc2c(c1)N(CCCN1CCC(CCO)CC1)c1ccccc1S2
[A] > 30 µM

[Q] // AC50 lookup, key: Cn1c(=O)c2[nH]cnc2n(C)c1=O
[A] > 30 µM

[Q] // AC50 lookup, key: CNCC[C@@H](Oc1ccccc1C)c1ccccc1
[A] > 30 µM

[Q] // AC50 lookup, key: CC(C)=CCOc1ccc(/C=C/C(=O)c2ccc(OCC=C(C)C)cc2OCC(=O)O)cc1
[A] 13 µM

====

Here the recorded AC50 is given for each entry.
biological target: UniProt P08913
Sequence (P08913 whole entry): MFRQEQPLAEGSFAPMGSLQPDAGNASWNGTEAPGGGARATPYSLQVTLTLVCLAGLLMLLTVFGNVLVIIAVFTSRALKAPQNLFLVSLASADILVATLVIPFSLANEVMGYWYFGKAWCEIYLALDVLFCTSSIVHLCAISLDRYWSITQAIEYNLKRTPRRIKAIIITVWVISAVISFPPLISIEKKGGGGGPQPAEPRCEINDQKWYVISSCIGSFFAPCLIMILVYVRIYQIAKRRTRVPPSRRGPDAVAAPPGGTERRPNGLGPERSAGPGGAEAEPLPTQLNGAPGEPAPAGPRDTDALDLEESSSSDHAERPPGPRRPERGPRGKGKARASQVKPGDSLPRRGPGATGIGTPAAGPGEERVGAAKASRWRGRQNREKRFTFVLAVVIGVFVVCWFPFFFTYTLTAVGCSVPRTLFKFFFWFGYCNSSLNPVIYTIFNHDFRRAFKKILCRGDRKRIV

Reference set, count: 3
Compound	AC50
C[C@@H]1C[C@H]2[C@@H]3CCC4=CC(=O)C=C[C@]4(C)C3=CC[C@]2(C)[C@H]1C(=O)CN1CCN(c2cc(N3CCCC3)nc(N3CCCC3)n2)CC1 [TIRILAZAD]	17.3 µM
Nc1ccncc1 [DALFAMPRIDINE]	> 30 µM
C[C@]12CCC(=O)C=C1CC[C@@H]1[C@@H]2[C@@H](O)C[C@@]2(C)[C@H]1CC[C@]2(O)C(=O)COC(=O)CCC(=O)O [HYDROCORTISONE HEMISUCCINATE ANHYDROUS]	> 30 µM

[Q] // AC50 lookup, key: O=C1c2c(O)cccc2Cc2cccc(O)c21 [ANTHRALIN]
[A] > 30 µM

[Q] // AC50 lookup, key: CO[C@@]1(NC(=O)CSCC#N)C(=O)N2C(C(=O)O)=C(CSc3nnnn3C)CS[C@@H]21 [CEFMETAZOLE]
[A] > 30 µM

[Q] // AC50 lookup, key: CC(c1ccc(Cl)c(Cl)c1)N1N=C(N)CC1=O (stereo not drawn) [MUZOLIMINE]
[A] > 30 µM

[Q] // AC50 lookup, key: CCCCOc1ccc(CC(=O)NO)cc1 [BUFEXAMAC]
[A] > 30 µM

[Q] // AC50 lookup, key: Cc1cc(CCN2CCN(c3cccc(Cl)c3)CC2)n[nH]1 [MEPIPRAZOLE]
[A] 4.52 µM

====

Here the recorded AC50 is given for each entry.
target: Muscarinic acetylcholine receptor M2 (Homo sapiens, UniProt P08172); assay type: functional, cell-based; note: assay procedure not described here
Sequence (P08172 whole entry): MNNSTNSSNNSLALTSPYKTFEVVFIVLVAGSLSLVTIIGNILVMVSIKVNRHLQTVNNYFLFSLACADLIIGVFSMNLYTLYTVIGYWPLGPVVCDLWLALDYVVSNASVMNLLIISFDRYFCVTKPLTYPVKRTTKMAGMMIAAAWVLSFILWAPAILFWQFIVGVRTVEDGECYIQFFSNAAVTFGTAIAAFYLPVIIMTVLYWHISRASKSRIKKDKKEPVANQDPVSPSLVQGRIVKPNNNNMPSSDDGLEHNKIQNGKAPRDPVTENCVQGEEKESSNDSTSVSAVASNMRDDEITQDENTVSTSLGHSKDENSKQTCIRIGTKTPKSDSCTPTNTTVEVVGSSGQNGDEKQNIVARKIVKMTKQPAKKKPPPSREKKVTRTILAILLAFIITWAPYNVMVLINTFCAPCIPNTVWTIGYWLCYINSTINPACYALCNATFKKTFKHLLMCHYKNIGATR

Reference set, count: 6
Compound	AC50
O=C1CN2Cc3c(ccc(Cl)c3Cl)N=C2N1 [ANAGRELIDE]	> 10 µM
CCC(=O)OCC(=O)[C@@]1(OC(=O)CC)[C@@H](C)C[C@H]2[C@@H]3CCC4=CC(=O)C=C[C@]4(C)[C@@]3(F)[C@@H](O)C[C@@]21C [BETAMETHASONE DIPROPIONATE]	> 30 µM
CCN(CC)CC(=O)Oc1ccc(NC(C)=O)cc1 [PROPACETAMOL]	> 30 µM
CC(C)(C)NC[C@H](O)COc1nsnc1N1CCOCC1 [TIMOLOL]	> 30 µM
C=CC(N)CCC(=O)O (centres undefined) [VIGABATRIN]	> 10 µM
CN1CCN(CCCN2c3ccccc3Sc3ccc(S(=O)(=O)N(C)C)cc32)CC1 [THIOPROPERAZINE]	12 µM

[Q] // AC50 lookup, key: O=C1Nc2ccc(Cl)cc2C(c2ccccc2)=NC1O (centres undefined) [OXAZEPAM]
[A] > 10 µM

[Q] // AC50 lookup, key: C#C[C@]1(O)CC[C@H]2[C@@H]3CCC4=CC(=O)CCC4=C3C=C[C@@]21CC [GESTRINONE]
[A] > 30 µM

[Q] // AC50 lookup, key: CC(C)C[C@H](CN)CC(=O)O [PREGABALIN]
[A] > 30 µM

====

Molecular target: 5-hydroxytryptamine receptor 1A (Homo sapiens); note: assay procedure not described here
Sequence (P08908 whole entry): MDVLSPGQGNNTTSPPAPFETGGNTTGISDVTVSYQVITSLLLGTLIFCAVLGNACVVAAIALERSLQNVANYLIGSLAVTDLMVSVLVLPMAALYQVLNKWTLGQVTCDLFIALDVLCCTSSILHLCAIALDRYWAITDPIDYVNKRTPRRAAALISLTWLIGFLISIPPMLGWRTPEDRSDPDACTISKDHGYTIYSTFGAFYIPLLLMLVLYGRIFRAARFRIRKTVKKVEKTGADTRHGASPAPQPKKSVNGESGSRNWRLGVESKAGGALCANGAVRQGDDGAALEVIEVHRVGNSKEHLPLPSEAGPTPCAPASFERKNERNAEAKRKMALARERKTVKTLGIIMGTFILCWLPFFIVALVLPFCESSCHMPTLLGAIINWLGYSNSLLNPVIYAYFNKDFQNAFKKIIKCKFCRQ
Format: functional, cell-based
Endpoint: AC50

[Q] // AC50 lookup, key: CCCCC[C@H](O)/C=C/[C@H]1[C@H](O)CC(=O)[C@@H]1C/C=C\CCCC(=O)O
[A] > 30 µM

====

biological target: UniProtKB P08913; format: functional, cell-based
Here the recorded AC50 is given for each entry.

Reference set, count: 2
Molecule	AC50
N#Cc1ccccc1-c1cc(-c2ccccn2)cn(-c2ccccc2)c1=O	> 30 µM
N#C[C@@H]1CCCN1C(=O)CNC12CC3CC(CC(O)(C3)C1)C2 [VILDAGLIPTIN]	> 30 µM

# ---- query molecule ----
[Q] Return AC50 measured with UniProtKB P08913 given this molecule: Cn1c(=O)c2[nH]cnc2n(C)c1=O [THEOPHYLLINE]
[A] > 10 µM
